The following molecules are listed with their measured log10(IC50) values.
molecular target: Human plasma kallikrein (Homo sapiens (Human), UniProt P03952); assay: Determination of the IC50 for plasma kallikrein; assay type: biochemical; conditions: 25° C., substrate H-DPro-Phe-Arg-AFC; read-out: IC50 (human PKal)
Sequence (P03952 391-638): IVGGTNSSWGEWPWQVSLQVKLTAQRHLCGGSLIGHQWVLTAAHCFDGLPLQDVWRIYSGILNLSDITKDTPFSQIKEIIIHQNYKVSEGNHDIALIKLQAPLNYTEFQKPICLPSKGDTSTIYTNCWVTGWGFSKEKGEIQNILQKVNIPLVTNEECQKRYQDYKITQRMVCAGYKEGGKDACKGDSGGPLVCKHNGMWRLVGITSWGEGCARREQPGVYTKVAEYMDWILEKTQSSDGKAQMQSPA
Sequence (P03952 20-390): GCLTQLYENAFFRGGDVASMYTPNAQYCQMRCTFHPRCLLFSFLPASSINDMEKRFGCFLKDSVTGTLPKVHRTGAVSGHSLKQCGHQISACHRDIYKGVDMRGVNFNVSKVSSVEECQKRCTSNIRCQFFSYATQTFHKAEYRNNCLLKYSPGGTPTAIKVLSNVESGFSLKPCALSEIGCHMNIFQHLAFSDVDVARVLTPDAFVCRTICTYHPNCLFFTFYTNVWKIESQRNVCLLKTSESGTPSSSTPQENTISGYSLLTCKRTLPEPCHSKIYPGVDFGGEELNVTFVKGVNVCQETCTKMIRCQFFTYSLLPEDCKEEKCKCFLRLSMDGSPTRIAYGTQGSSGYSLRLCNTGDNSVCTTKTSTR
Reminder: these figures are log10 of reported IC50, in µM before transformation.

Some molecules with known log10(IC50) results, for comparison:
>  <smiles>
COCc1nn(Cc2ccc(Cn3ccccc3=O)cc2)cc1C(=O)NCc1cc(OC)ccc1-n1cnnn1

>  <measured_parameter>
log10(IC50)

>  <assay_value>
-3.40

$$$$
>  <smiles>
COCc1nn(Cc2ccc(Cn3ccccc3=O)cc2)cc1C(=O)NCc1cc(OC)n(C)n1

>  <measured_parameter>
log10(IC50)

>  <assay_value>
-0.34

$$$$
>  <smiles>
COCc1nn(Cc2ccc(Cn3ccccc3=O)cc2)cc1C(=O)NCc1nc(C)ccc1F

>  <measured_parameter>
log10(IC50)

>  <assay_value>
-0.11

$$$$
>  <smiles>
COCc1nn(Cc2ccc(Cn3ccccc3=O)cn2)cc1C(=O)NCc1c(C#N)ccc(OC)c1F

>  <measured_parameter>
log10(IC50)

>  <assay_value>
-1.67

$$$$
>  <smiles>
COCc1nn(Cc2ccc(Cn3ccccc3=O)cc2)cc1C(=O)NCc1nccc(OC)n1

>  <measured_parameter>
log10(IC50)

>  <assay_value>
0.39

$$$$
>  <smiles>
Nc1nn(Cc2ccc(Cn3ccccc3=O)cc2)cc1C(=O)NCc1cc(Cl)ccc1-n1cnnn1

>  <measured_parameter>
log10(IC50)

>  <assay_value>
-3.52

$$$$

Field log10(IC50) (entry "COCc1nn(Cc2ccc(Cn3ccccc3=O)cc2)cc1C(=O)NCc1cccc(OC)c1C#N" ) reads -0.52

Field log10(IC50) (entry "COc1ccc(C#N)c(CNC(=O)c2cn(Cc3ccc(Cn4ccccc4=O)cc3)nc2N)c1F" ) reads -3.22
